Target: human P2X3 receptor (Homo sapiens (Human), UniProt P56373)
Sequence (P56373 whole entry): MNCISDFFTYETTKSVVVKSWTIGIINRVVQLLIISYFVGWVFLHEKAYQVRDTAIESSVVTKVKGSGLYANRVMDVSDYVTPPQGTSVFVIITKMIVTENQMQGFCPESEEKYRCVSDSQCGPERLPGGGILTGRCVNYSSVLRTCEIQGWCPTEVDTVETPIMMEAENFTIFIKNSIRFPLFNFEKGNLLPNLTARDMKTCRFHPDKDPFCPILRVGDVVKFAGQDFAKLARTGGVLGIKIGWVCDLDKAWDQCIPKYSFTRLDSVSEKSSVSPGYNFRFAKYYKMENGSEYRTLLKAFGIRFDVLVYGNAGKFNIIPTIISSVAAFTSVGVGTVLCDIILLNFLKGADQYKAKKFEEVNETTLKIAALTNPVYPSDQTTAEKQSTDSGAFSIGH
Test: Evaluation of human P2X3 receptor inhibitory activity (Fluo-3 calcium fluorescence, FDSS 3000, ATP stimulation)
Assay type: cell-based
Conditions: human P2X3 receptor, Test Example 1
Here the recorded log10 of IC50 is given for each entry.
MEASURE NAME: log10 of IC50 (log10 of the value in nM)

SMILES STR: CCn1c(=O)[nH]/c(=N\c2ccc(Oc3cccc(-c4nnn[nH]4)n3)cc2)n(Cc2ccc(Cl)cc2)c1=O
log10 of IC50: 0.30
//
SMILES STR: COC(=O)c1cc(Oc2ccc(/N=c3\[nH]c(=O)n(C)c(=O)n3Cc3ccc(Cl)cc3)cc2)ccn1
log10 of IC50: 1.18
//
SMILES STR: CCn1c(=O)[nH]/c(=N\c2ccc(Oc3cnc(C#N)cn3)cc2)n(Cc2ccc(Cl)cc2)c1=O
log10 of IC50: 0.30
//
SMILES STR: Cc1cc(/N=c2\[nH]c(=O)n([C@H]3CC[C@H](C(=O)O)CC3)c(=O)n2Cc2ccc(Cl)cc2)ccc1OC(C)C
log10 of IC50: 1.79
//
SMILES STR: COc1ccc(CNc2nc(=O)n(Cc3ccc(Cl)cc3)/c(=N/c3ccc(OC(C)C)cc3)[nH]2)c(OC)c1
log10 of IC50: 2.89
//
SMILES STR: CCn1c(=O)[nH]/c(=N\c2ccc(Oc3ccc(C#N)cn3)cc2)n(Cc2ccc(C)cc2)c1=O
log10 of IC50: 0.60
//
SMILES STR: CCOC(=O)CCn1c(=O)[nH]/c(=N\c2ccc(Oc3ccon3)cc2)n(Cc2ccc(Cl)cc2)c1=O
log10 of IC50: 0.60
//
SMILES STR: Cc1ccc(Cn2c(=O)n(CC3(C(=O)O)COC3)c(=O)[nH]/c2=N\c2ccc(OC(C)C)c(Cl)c2)cc1
log10 of IC50: 1.41
//
SMILES STR: C=C(C)c1ccc(/N=c2\[nH]c(=O)n(C[C@H](C)C(=O)O)c(=O)n2Cc2ccc(C)cc2)cc1Cl
log10 of IC50: 2.66
//
SMILES STR: CNC(=O)Nc1cc(Oc2ccc(/N=c3\[nH]c(=O)n(C)c(=O)n3Cc3ccc(Cl)cc3)cc2)ccn1
log10 of IC50: 0.78
//
SMILES STR: CCn1c(=O)[nH]/c(=N\[C@H]2CC[C@H](Oc3ccnc(C(=O)O)c3)CC2)n(Cc2ccc(Cl)cc2)c1=O
log10 of IC50: 1.81

----------
Target: human P2X3 receptor (Homo sapiens (Human), UniProt P56373)
Experiment: Evaluation of human P2X3 receptor inhibitory activity (Fluo-3 calcium fluorescence, FDSS 3000, ATP stimulation)
Type: cell-based
Conditions: C6BU-1 cells stably expressing human P2X3 receptor, Fluo-3 fluorescence, FDSS 3000
For each record, check the reported IC50: if it is below 200 nM write 1, else write -1.

SMILES STR: C#Cc1ccc(Cn2c(=O)n(C[C@H](C)C(=O)O)c(=O)[nH]/c2=N\c2ccc(OC(C)C)c(C)c2)cc1
CAT: -1

SMILES STR: C=Cc1ccc(Cn2c(=O)n(C[C@H](C)C(=O)OC)c(=O)[nH]/c2=N\c2ccc(OC(C)C)cc2)cc1
CAT: 1

SMILES STR: Cc1ccc(Cn2c(=O)n(C[C@H](C)C(=O)O)c(=O)[nH]/c2=N\c2ccc(CN(C)C)c(Cl)c2)cc1
CAT: -1

SMILES STR: CC(=O)NCCn1c(=O)[nH]/c(=N\c2ccc(CC(C)C)c(Cl)c2)n(Cc2ccc(Cl)cc2)c1=O
CAT: 1

SMILES STR: COC(=O)C(=O)Cn1c(=O)[nH]/c(=N\c2ccc(OC(C)C)c(C)c2)n(Cc2ccc(Cl)cc2)c1=O
CAT: 1

SMILES STR: CCC[C@@H](C)Oc1ccc(/N=c2\[nH]c(=O)n(C[C@H](C)C(=O)OC)c(=O)n2Cc2ccc(C)cc2)cc1
CAT: 1

SMILES STR: COC(=O)[C@@H](C)Cn1c(=O)[nH]/c(=N\c2ccc(CN(C)C)c(Cl)c2)n(Cc2ccc(C)cc2)c1=O
CAT: 1

----------
Molecular target: human P2X3 receptor (Homo sapiens (Human), UniProt P56373)
Test: Evaluation of human P2X3 receptor inhibitory activity (Fluo-3 calcium fluorescence, FDSS 3000, ATP stimulation)
Type: cell-based
Settings: human P2X3 receptor, Test Example 1

SMILES STR: O=c1[nH]/c(=N\c2ccc(Oc3ccsn3)cc2)n(Cc2ccc(Cl)cc2)c(=O)n1CCO
IC50 (µM): 0.015
--
SMILES STR: O=c1[nH]/c(=N\c2ccc(Oc3ccon3)cc2)n(Cc2ccc(Cl)cc2)c(=O)n1CCOCCO
IC50 (µM): 0.01
--
SMILES STR: CCn1c(=O)[nH]/c(=N\c2ccc(Oc3ncc(C(=O)O)cn3)cc2)n(Cc2ccc(Cl)cc2)c1=O
IC50 (µM): 0.016

----------
Molecular target: UniProtKB P56373
Assay: Evaluation of human P2X3 receptor inhibitory activity (Fluo-3 calcium fluorescence, FDSS 3000, ATP stimulation)
Assay type: cell-based
Details: human P2X3 receptor, Test Example 1
Here the recorded IC50 is given for each entry.

COMPOUND: N#Cc1ccc(Oc2ccc(/N=c3\[nH]c(=O)n(CCO)c(=O)n3Cc3ccc(Cl)cc3)cc2)cc1 [Compound I-2545]
TESTED ON: UniProtKB P56373
IC50: 7 nM

COMPOUND: O=c1[nH]/c(=N\c2ccc(Oc3noc(C4CC4)n3)cc2)n(Cc2ccc(Cl)cc2)c(=O)n1C[C@H](O)CO [Compound I-2596]
TESTED ON: UniProtKB P56373
IC50: 51 nM

COMPOUND: CCn1c(=O)[nH]/c(=N\c2ccc(Oc3cccc(C(=O)O)n3)c(OC)c2)n(Cc2ccc(Cl)cc2)c1=O [Compound I-2423]
TESTED ON: UniProtKB P56373
IC50: 7 nM

----------
Biological target: human P2X3 receptor (Homo sapiens (Human), UniProt P56373)
Assay: Evaluation of human P2X3 receptor inhibitory activity (Fluo-3 calcium fluorescence, FDSS 3000, ATP stimulation)
Assay type: cell-based
Settings: human P2X3 receptor, Test Example 1
pIC50: −log10 of the molar value.
Criterion: pIC50 meeting or surpassing 8. Met: true (1). Not met: false (0).

SMILES STR: CC(CO)(CO)Cn1c(=O)[nH]/c(=N\c2ccc(Oc3ccsn3)cc2)n(Cc2ccc(Cl)cc2)c1=O
CAT: true (1)

SMILES STR: CCn1c(=O)[nH]/c(=N\c2ccc(Oc3ncccc3C#N)cc2)n(Cc2ccc(Cl)cc2)c1=O
CAT: false (0)

SMILES STR: Cc1nsc(Oc2ccc(/N=c3\[nH]c(=O)n(CC(C)(CO)CO)c(=O)n3Cc3ccc(Cl)cc3)cc2)n1
CAT: true (1)

SMILES STR: CCn1c(=O)[nH]/c(=N\[C@H]2CC[C@H](Oc3ccnc(C(=O)NC)c3)CC2)n(Cc2ccc(Cl)cc2)c1=O
CAT: false (0)

----------
Target: human P2X3 receptor (Homo sapiens (Human), UniProt P56373)
Test: Evaluation of human P2X3 receptor inhibitory activity (Fluo-3 calcium fluorescence, FDSS 3000, ATP stimulation);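 note: stimulus was 50 nM ATP with fluorescence followed for 3 min, and the response per well was peak post-ATP fluorescence divided by the reading at measurement start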
Type: cell-based
Details: C6BU-1 cells stably expressing human P2X3 receptor
pIC50: −log10 of the molar value.
Criterion: pIC50 meeting or surpassing 7. Met: Satisfied. Not met: Not satisfied.

COMPOUND: CCOc1ccc(/N=c2\[nH]c(=O)n(C[C@H](C)C(=O)O)c(=O)n2Cc2ccc(C)cc2)cc1Cl [Compound I-0682]
CAT: Satisfied
--
COMPOUND: COC(=O)C(C)(C)Cn1c(=O)[nH]/c(=N\c2cccc(C(F)(F)F)c2)n(Cc2ccc(C)cc2)c1=O [Compound I-1258]
CAT: Satisfied
--
COMPOUND: CC(C)Cc1ccc(/N=c2\[nH]c(=O)n(C[C@H](C)C(=O)O)c(=O)n2Cc2ccc(Cl)cc2)cc1F [Compound I-1257]
CAT: Satisfied
--
COMPOUND: COC(=O)Cn1c(=O)[nH]/c(=N\c2ccc(OCC3CC3)cc2)n(Cc2ccc(Cl)cc2)c1=O [Compound I-1930]
CAT: Satisfied
--
COMPOUND: Cc1ccc(Cn2c(=O)n(CCC(=O)O)c(=O)[nH]/c2=N\c2cccc(Cl)c2F)cc1 [Compound I-2054]
CAT: Not satisfied
--
COMPOUND: COC(=O)[C@H](C)[C@H](C)n1c(=O)[nH]/c(=N\c2ccc(Oc3cccnc3)cc2)n(Cc2ccc(Cl)cc2)c1=O [Compound I-1377]
CAT: Satisfied
--
COMPOUND: COc1cc(/N=c2\[nH]c(=O)n(C[C@H]3COC(C)(C)O3)c(=O)n2Cc2ccc(Cl)cc2)ccc1OC(C)C [Compound I-2001]
CAT: Satisfied
--
COMPOUND: CC(C)Oc1ccc(/N=c2\[nH]c(=O)n(C[C@H](C)C(=O)O)c(=O)n2Cc2ccccc2)cc1Cl [Compound I-0794]
CAT: Not satisfied
--
COMPOUND: CCOc1ccc(/N=c2\[nH]c(=O)n(C[C@H](C)C(=O)OC)c(=O)n2Cc2ccc(Cl)cc2)cc1F [Compound I-0602]
CAT: Satisfied
--
COMPOUND: O=c1[nH]/c(=N\c2ccc3nc(C4CC4)sc3c2)n(Cc2ccc(Cl)cc2)c(=O)n1CC(CO)CO [Compound I-1983]
CAT: Satisfied
--
COMPOUND: CCc1nc2ccc(/N=c3\[nH]c(=O)n(C[C@H](C)C(=O)OC)c(=O)n3Cc3ccc(Cl)cc3)cc2o1 [Compound I-1326]
CAT: Not satisfied
--
COMPOUND: Cc1cc(/N=c2\[nH]c(=O)n(CCC(=O)O)c(=O)n2Cc2ccc(Cl)cc2)ccc1CC(C)C [Compound I-1255]
CAT: Satisfied
--
COMPOUND: O=C(Cn1c(=O)[nH]/c(=N\c2ccc(Oc3ccnc(O)c3)cc2)n(Cc2ccc(Cl)cc2)c1=O)NCCO [Compound I-1979]
CAT: Satisfied
--
COMPOUND: CC(C)Oc1ccc(/N=c2\[nH]c(=O)n([C@H](C)[C@H](C)C(=O)O)c(=O)n2Cc2ccc(Cl)cc2)cc1F [Compound I-1343]
CAT: Satisfied
--
COMPOUND: O=c1[nH]/c(=N\c2ccc(Oc3cc(CO)on3)cc2)n(Cc2ccc(Cl)cc2)c(=O)n1CCO [Compound I-2118]
CAT: Satisfied
--
COMPOUND: COCc1cc(/N=c2\[nH]c(=O)n(CC(C)(C)C(=O)O)c(=O)n2Cc2ccc(Cl)cc2)ccc1OC(C)C [Compound I-1430]
CAT: Not satisfied
--
COMPOUND: C[C@@H](C(=O)O)[C@H](C)n1c(=O)[nH]/c(=N\c2ccc(Oc3cccnc3)cc2)n(Cc2ccc(Cl)cc2)c1=O [Compound I-1390]
CAT: Satisfied
--
COMPOUND: COC(=O)[C@@H](C)Cn1c(=O)[nH]/c(=N\c2ccc(OC(C)C)cc2)n(Cc2ccc(C)cc2)c1=O [Compound I-0606]
CAT: Satisfied
--
COMPOUND: C[C@@H](Cn1c(=O)[nH]/c(=N\c2ccc3ncccc3c2)n(Cc2ccc(Cl)cc2)c1=O)C(=O)O [Compound I-1346]
CAT: Not satisfied
